Reference for the values: paper PMC4336329

- targetSystem: human ether-à-go-go-related gene (hERG) potassium channel (human);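 note: peak tail current of the secondary pulse compared with the same well before compound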
- Sequence (Q12809 whole entry, looked up): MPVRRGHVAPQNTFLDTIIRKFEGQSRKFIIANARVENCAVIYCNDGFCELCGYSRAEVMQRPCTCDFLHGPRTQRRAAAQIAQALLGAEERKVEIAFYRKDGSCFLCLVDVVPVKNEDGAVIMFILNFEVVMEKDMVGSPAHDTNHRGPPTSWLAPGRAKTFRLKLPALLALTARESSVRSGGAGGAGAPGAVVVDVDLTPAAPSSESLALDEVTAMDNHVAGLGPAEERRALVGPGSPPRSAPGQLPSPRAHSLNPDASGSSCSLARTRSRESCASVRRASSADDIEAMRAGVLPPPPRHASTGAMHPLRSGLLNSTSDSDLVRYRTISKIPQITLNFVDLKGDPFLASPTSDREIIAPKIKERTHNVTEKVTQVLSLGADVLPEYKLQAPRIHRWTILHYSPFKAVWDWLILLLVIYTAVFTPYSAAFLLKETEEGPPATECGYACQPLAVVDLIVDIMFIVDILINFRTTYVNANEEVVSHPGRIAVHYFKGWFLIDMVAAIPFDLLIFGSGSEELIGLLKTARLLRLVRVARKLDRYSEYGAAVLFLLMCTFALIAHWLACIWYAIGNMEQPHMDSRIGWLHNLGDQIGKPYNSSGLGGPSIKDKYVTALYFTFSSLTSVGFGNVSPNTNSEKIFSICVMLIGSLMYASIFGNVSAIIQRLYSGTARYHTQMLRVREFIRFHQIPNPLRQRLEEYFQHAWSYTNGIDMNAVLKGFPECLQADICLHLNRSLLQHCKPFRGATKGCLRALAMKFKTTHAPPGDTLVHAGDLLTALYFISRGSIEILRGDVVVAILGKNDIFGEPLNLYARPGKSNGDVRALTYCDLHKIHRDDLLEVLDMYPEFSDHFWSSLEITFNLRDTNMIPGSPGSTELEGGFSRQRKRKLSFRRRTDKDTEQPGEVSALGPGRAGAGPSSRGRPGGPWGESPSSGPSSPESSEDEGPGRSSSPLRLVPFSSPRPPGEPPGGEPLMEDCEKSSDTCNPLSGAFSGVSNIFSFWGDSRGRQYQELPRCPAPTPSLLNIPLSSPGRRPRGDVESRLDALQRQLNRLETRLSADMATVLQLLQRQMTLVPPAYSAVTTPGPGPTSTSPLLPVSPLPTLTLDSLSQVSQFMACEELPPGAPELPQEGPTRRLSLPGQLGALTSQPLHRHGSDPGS
- experimentDescription: primary screen, population patch clamp on CHO cells stably expressing hERG; higher = less effect of the substance
Hit rate of the full screen: of about 310,000 compounds, about 14,000 (4.5%) showed an effect of 50% or more. The effect is printed as a negative number. This is one part of a sample in which strong results are shown more often than they occur.
readoutName: hERG current change (%, negative = inhibition) at 10uM (%)

{"columns": ["molecule", "targetSystem", "numericValue"],
 "data": [
  ["CC1CCCC(NCC(O)COC(c2ccc(F)cc2)c2ccc(F)cc2)C1C (centres unmarked)", "human ether-à-go-go-related gene (hERG) potassium channel (human)", -71.6],
  ["CC1CCCC(NC(=O)CSc2ccc(F)cc2)C1C (centres unmarked)", "human ether-à-go-go-related gene (hERG) potassium channel (human)", 18.7],
  ["Cc1ccc(-n2nc3c(c2NC(=O)c2ccco2)CS(=O)C3)cc1 (centres unmarked)", "human ether-à-go-go-related gene (hERG) potassium channel (human)", -8.69],
  ["Cc1ccc(S(=O)(=O)N/N=C/c2cn(C)nc2C)cc1", "human ether-à-go-go-related gene (hERG) potassium channel (human)", -2.68],
  ["O=C(C1CCC(=O)N1Cc1ccccc1Cl)N1CCC2(CC1)OCCO2 (centres unmarked)", "human ether-à-go-go-related gene (hERG) potassium channel (human)", -29.7],
  ["Cn1nc(C(=O)OCc2ccccc2F)c2ccccc2c1=O", "human ether-à-go-go-related gene (hERG) potassium channel (human)", 13],
  ["Clc1ccc(OCc2nc(-c3ccccn3)n[nH]2)cc1", "human ether-à-go-go-related gene (hERG) potassium channel (human)", -55.6],
  ["CC(C(N)=O)N1CC(c2ccc(Cl)cc2)CC1=O (centres unmarked)", "human ether-à-go-go-related gene (hERG) potassium channel (human)", -10.8],
  ["CC1CCCC(NC(=O)CCC(=O)c2ccc(F)cc2)C1C (centres unmarked)", "human ether-à-go-go-related gene (hERG) potassium channel (human)", 8.27],
  ["O=C(CSc1nc2c(c(=O)n1-c1ccc(Cl)cc1)SCC2)N1CCOCC1", "human ether-à-go-go-related gene (hERG) potassium channel (human)", -14.2],
  ["C=COCCn1c(-c2nonc2N)nc2ccccc21", "human ether-à-go-go-related gene (hERG) potassium channel (human)", -3.07]
]}
